test: gradient 5% acetonitrile 3 min, to 50% in 2 min, to 85% in 15 min, held 3 min, 100 µL/min; conditions: column: Zorbax Extend-C18 2.1 x 50 mm; eluents: water / acetonitrile, 0.1% formic acid
measuredAttribute: RP-LC retention time (s)

Please review the following examples before continuing.
CCOc1ccccc1NC(=O)N1CCC2(CC1)NC(=O)c1ccc(F)cc1N2C | 817
Cc1[nH]c(C)c(S(=O)(=O)N2CCC(C(=O)N3CCC(C)CC3)CC2)c1C(=O)N1CCCCC1 | 760
CC1(CNC(=O)Cc2c[nH]c3ccccc23)CCOCC1 | 668
COC(=O)Cc1[nH]c(=O)[nH]c1C(=O)OC | 1100
COCCn1nc2n(c1=O)CCN(Cc1cccc(OC)n1)CC2 | 515

[A] CCN1CCN(CCCNC(=O)C2CCCN(c3ncnc4onc(C)c34)C2)CC1 (stereo unspecified)
[B] Cc1ccc(C(=O)N2CCN(c3ccc(-c4noc(C5CC5)n4)cc3)CC2)s1
input: Of the two listed items, which has the higher RP-LC retention time? First: A Second: B In your reply, give the label of the chosen option.
output: B
(B: 1010 s, A: 557 s)

* * *

assay: gradient 5% acetonitrile 3 min, to 50% in 2 min, to 85% in 15 min, held 3 min, 100 µL/min; details: column: Zorbax Extend-C18 2.1 x 50 mm; eluents: water / acetonitrile, 0.1% formic acid
measuredAttribute: RP-LC retention time (s)

[a] COC(=O)c1[nH]c(C)c(C(=O)C(C)N(CC(C)C)C(=O)c2ccccc2Cl)c1C (stereo not drawn)
[b] COc1cccc(CN2CCC3(CC2)CC(O)CCO3)c1OC (stereo not drawn)
input: Parameter metric = RP-LC retention time. Return the lower-valued option from a and b . Answer format: the label of the selected item.
output: b
(b: 582 s, a: 932 s)

[1] O=C(Nc1nc2ccc(F)cc2s1)c1ccccc1Br
[2] CCN1CCCC1CNC(=O)C1c2ccccc2C(=O)N(CCOC)C1c1cccs1 (stereo not drawn)
input: When their RP-LC retention time values are compared, which is larger, 1 or 2 ? Write the label of whichever entry you select.
output: 1
(1: 900 s, 2: 556 s)

[P] Cn1c(=O)c2nc(S(=O)(=O)CCC(=O)Nc3ccc(F)cc3Cl)n(C)c2n(C)c1=O
[Q] Cc1cc(OC(=O)c2cc3ccccc3o2)c([N+](=O)[O-])c(=O)[nH]1
input: For the two items P and Q , which reports the higher RP-LC retention time value? Mark your answer with the label of the selected entry.
output: Q
(Q: 1160 s, P: 758 s)

[A] CCn1cc2c3c(cccc31)CN(C(=O)Nc1ccc(SC)cc1)CC2
[B] CCNC(=O)C1CCCN(c2nc3ncn(CC(=O)Nc4ccc(F)c(F)c4)c(=O)c3s2)C1 (stereo not drawn)
input: Pick one: A or B . Which one has the lower reported RP-LC retention time? When you have decided, please share the label of that item.
output: B

* * *

experiment: gradient 5% acetonitrile 3 min, to 50% in 2 min, to 85% in 15 min, held 3 min, 100 µL/min; details: column: Zorbax Extend-C18 2.1 x 50 mm; eluents: water / acetonitrile, 0.1% formic acid
measuredAttribute: RP-LC retention time (s)

# annotated cases, reported RP-LC retention time shown
CC(=O)c1cccc(NC(=O)Nc2cccc(-c3ccc(N4CCOCC4)nn3)c2)c1 | 655
Cc1nc2cc(-c3noc(-c4cccc(Br)c4)n3)ccc2n(C)c1=O | 1170
CC(C)CCNC(=O)c1ccc2ccnc(N3CCN(c4ccc(Cl)cc4)CC3)c2c1 | 992
COCCCNC(=O)c1nc(Nc2ccccc2)c2ccccc2n1 | 664
CCCn1c(=O)c(C)nc2cc(-c3noc(-c4ccc(OC)c(OC)c4)n3)ccc21 | 1090
O=C1Cc2cc(NC(=O)NCCCc3ccccc3)ccc2N1 | 657

[a] O=C(CC1CCCCC1)N1CCN(c2ccc(=O)n(-c3ccc(F)cc3)n2)CC1
[b] CC1CCCN(CCCNC(=O)CCCn2c3ccccc3c3cnn(C)c(=O)c32)C1 (configuration not stated)
input: Sorting ascending by RP-LC retention time, which comes first: a or b ? The response must carry the label of the picked entry.
output: b

meta.source: the METLIN SMRT retention time set (Domingo-Almenara et al. 2019)
